Measured values drawn from ChEMBL document CHEMBL3272032 for this set.

Tested on: Pediococcus
MEASUREMENT NOTES: Antibacterial activity against chlorguanide triazine-resistant Pediococcus cerevisiae ATCC 808 assessed as reduction in growth in presence of 0.001 ug/ml folinic acid
Assay type: functional
The source made the active and inactive calls. The rule behind the calls is not given here.
Labels: active, inactive

• Nc1nc(N)c2cc(SCc3ccc(Cl)cc3)ccc2n1 = inactive
• Nc1nc(N)c2cc(NCc3ccc(Cl)c(Cl)c3)ccc2n1 = inactive
• CC1(C)N=C(N)N=C(N)N1c1ccc(Cl)cc1 = inactive
• N=C(N)NC(=O)Nc1ccc([N+](=O)[O-])cc1 = active
• CN1CCCCC1CNc1nc(-c2ccc(Cl)c(Cl)c2)nc(C(Cl)(Cl)Cl)n1 (centres undefined) = active
• C/C(=C\C(=N\NC(=N)N)c1ccccc1)c1ccccc1 = active
• ClC(Cl)(Cl)c1ccc(C(Cl)(Cl)Cl)cc1 = active
• Nc1nc(N)c2cc(Sc3ccc(Cl)cc3)ccc2n1 = inactive
• Nc1nc(N)c2cc(S(=O)(=O)c3ccc4ccccc4c3)ccc2n1 = inactive
• Clc1ccc(Nc2nc(NCCCN3CCCC3)c3ccccc3n2)cc1Cl = active
• CCc1nc(N)nc(N)c1-c1ccc(Cl)cc1 = inactive
• CC1(C)N=C(N)N=C(N)N1OCCCOc1cc(Cl)c(Cl)cc1Cl = inactive
• Nc1ncc(Cc2ccc3c(c2)OCO3)c(N)n1 = inactive
• COc1cc(Cc2cnc(N)nc2N)cc(OC)c1OC = inactive
• CCN1CCCC(Nc2cc(C)nc(NC(=N)Nc3ccc(Cl)c(Cl)c3)n2)C1 (centres undefined) = active
• CC(C)c1nc2nc(N)nc(N)c2nc1C(C)C = inactive
• N=C(N)N/N=C(\c1ccc(F)cc1)c1ccc(C(F)(F)F)cc1 = active
• Nc1nc(N)c2cc(Oc3cc(Cl)cc(Cl)c3)ccc2n1 = inactive
• O=C1C(O)=C(CCCCCCCCC2CCCCC2)C(=O)c2ccccc21 = active

* * *

Test system: Lacticaseibacillus casei
MEASUREMENT NOTES: Antibacterial activity against chlorguanide triazine-resistant Lactobacillus casei ATCC 7469 assessed as reduction in growth
Type: functional, organism-based
pIC50: −log10 of the molar value.
Kind request: treat 5 as inclusive, so pIC50 at 5 or higher is 1 (yes), anything lower is 0 (no).

- CCN1CCCC(Nc2cc(C)nc(NC(=N)Nc3ccc(Cl)c(Cl)c3)n2)C1 (stereo not drawn): 0 (no)
- CN1CCCCC1CNc1nc(-c2ccc(Cl)c(Cl)c2)nc(C(Cl)(Cl)Cl)n1 (stereo not drawn): 1 (yes)
- CC1(C)N=C(N)N=C(N)N1c1ccc(Cl)cc1 [CYCLOGUANIL]: 0 (no)
- O=C1C(O)=C(CCCCCCCCC2CCCCC2)C(=O)c2ccccc21 [MENOCTONE]: 0 (no)
- Nc1nc(N)c2cc(S(=O)(=O)c3ccc4ccccc4c3)ccc2n1: 1 (yes)
- Nc1nc(N)c2cc(Oc3cc(Cl)cc(Cl)c3)ccc2n1: 1 (yes)
- Cc1ccccc1-c1nc2c(N)nc(N)nc2nc1N: 1 (yes)
- CCc1ccc(N2C(N)=NC(N)=NC2(C)C)cc1: 0 (no)
- CC(CNc1nc(Nc2ccc(Cl)c(Cl)c2)nc(C(Cl)(Cl)Cl)n1)N(C)C (stereo not drawn): 1 (yes)
- ClC(Cl)(Cl)c1ccc(C(Cl)(Cl)Cl)cc1: 0 (no)
- Nc1ncc(Cc2ccc3c(c2)OCO3)c(N)n1: 1 (yes)
- Nc1nc(N)c2cc(SCc3ccc(Cl)cc3)ccc2n1: 1 (yes)
- Nc1nc(=O)c2c([nH]1)NCC(CCNc1ccc(C(=O)[O-])cc1)N2.[Na+] (stereo not drawn): 1 (yes)
- C=C[C@H]1CN2CC[C@H]1C[C@H]2[C@H](O)c1ccnc2ccc(OC)cc12 [QUININE]: 0 (no)
- COc1nccnc1NS(=O)(=O)c1ccc(N)cc1 [SULFALENE]: 0 (no)
- Nc1ccc(S(=O)(=O)c2ccc(N)cc2)cc1 [DAPSONE]: 0 (no)
- Cc1nc(C)c(Cl)c(O)c1Cl [CLOPIDOL]: 0 (no)
- CCCCN(CCCC)CC(O)c1cc(-c2ccc(Cl)c(Cl)c2)nc2c(Cl)cc(Cl)cc12 (stereo not drawn): 0 (no)
- CCc1nc(N)nc(N)c1-c1ccc(Cl)cc1 [PYRIMETHAMINE]: 1 (yes)
- CCN(CC)CCNc1nc(Nc2ccc(Cl)c(Cl)c2)nc2ccccc12: 1 (yes)
- CC1(C)N=C(N)N=C(N)N1OCc1ccc(Cl)c(Cl)c1 [CLOCIGUANIL]: 1 (yes)
- CC1(C)N=C(N)N=C(N)N1OCCCOc1cc(Cl)c(Cl)cc1Cl: 1 (yes)

* * *

MEASUREMENT NOTES: Antibacterial activity against chlorguanide triazine-resistant Pediococcus cerevisiae ATCC 808 assessed as reduction in growth
Format: functional
MEASURED METRIC: IC50 (µM)

- Nc1nc(N)c2cc(NCc3ccc(Cl)c(Cl)c3)ccc2n1: 0.7
- C/C(=C\C(=N\NC(=N)N)c1ccccc1)c1ccccc1: 13
- CCc1nc(N)nc(N)c1-c1ccc(Cl)cc1: 12
- C=C[C@H]1CN2CC[C@H]1C[C@H]2[C@H](O)c1ccnc2ccc(OC)cc12: 850
- Cc1nc(C)c(Cl)c(O)c1Cl: 1000
- Nc1nc(N)c2cc(Oc3cc(Cl)cc(Cl)c3)ccc2n1: 1.4
- Nc1nc(N)c2cc(Sc3ccc(Cl)cc3)ccc2n1: 0.4
- CC(CNc1nc(Nc2ccc(Cl)c(Cl)c2)nc(C(Cl)(Cl)Cl)n1)N(C)C (stereo not drawn): 7.5
- CC(C)c1nc2nc(N)nc(N)c2nc1C(C)C: 0.5
- CC1(C)N=C(N)N=C(N)N1OCCCOc1cc(Cl)c(Cl)cc1Cl: 0.8
- CC1(C)N=C(N)N=C(N)N1c1ccc(Cl)cc1: 900
- Nc1ncc(Cc2ccc3c(c2)OCO3)c(N)n1: 90.1
- CCCCN(CCCC)CC(O)c1cc(-c2ccc(Cl)c(Cl)c2)nc2c(Cl)cc(Cl)cc12 (stereo not drawn): 354
- ClC(Cl)(Cl)c1ccc(C(Cl)(Cl)Cl)cc1: 2000
- Nc1nc(N)c2cc(S(=O)(=O)c3ccc4ccccc4c3)ccc2n1: 0.05
- N=C(N)NC(=O)Nc1ccc([N+](=O)[O-])cc1: 197
- CC1(C)N=C(N)N=C(N)N1OCc1ccc(Cl)c(Cl)c1: 8.2
- CN1CCCCC1CNc1nc(-c2ccc(Cl)c(Cl)c2)nc(C(Cl)(Cl)Cl)n1 (stereo not drawn): 3.8
- Nc1nc(N)c2c(ccc3cc(Br)ccc32)n1: 0.3
- CCN(CC)CCNc1nc(C(Cl)(Cl)Cl)nc2cc(Cl)ccc12: 35
- CCN(CC)CCNc1nc(Nc2ccc(Cl)c(Cl)c2)nc2ccccc12: 8.2
- Nc1nc(N)c2cc(SCc3ccc(Cl)cc3)ccc2n1: 1.4

* * *

Attribute: pIC50
MEASUREMENT NOTES: Antibacterial activity against chlorguanide triazine-resistant Pediococcus cerevisiae ATCC 808 assessed as reduction in growth
Type: functional
pIC50: −log10 of the molar value.
MEASURED METRIC: pIC50

* Clc1ccc(Nc2nc(NCCCN3CCCC3)c3ccccc3n2)cc1Cl | 5.10
* Cc1ccccc1-c1nc2c(N)nc(N)nc2nc1N | 4.36
* CCN1CCCC(Nc2cc(C)nc(NC(=N)Nc3ccc(Cl)c(Cl)c3)n2)C1 (stereo not given) | 4.41
* O=C1C(O)=C(CCCCCCCCC2CCCCC2)C(=O)c2ccccc21 [MENOCTONE] | 3.24
* COc1cc(NC(C)CCCN)c2ncccc2c1 (stereo not given) [PRIMAQUINE] | 3.27
* N=C(N)N/N=C(\c1ccc(F)cc1)c1ccc(C(F)(F)F)cc1 | 4.68
* CN(Cc1cnc2nc(N)nc(N)c2n1)c1ccc(C(=O)N[C@@H](CCC(=O)O)C(=O)O)cc1 [METHOTREXATE] | 5.82
* COc1cc(Cc2cnc(N)nc2N)cc(OC)c1OC [TRIMETHOPRIM] | 4.17
* CCN(CC)CCCC(C)Nc1ccnc2cc(Cl)ccc12 (stereo not given) [CHLOROQUINE] | 2.60

* * *

System: Pediococcus
MEASUREMENT NOTES: Antibacterial activity against sensitive Pediococcus cerevisiae ATCC 808 assessed as reduction in growth in presence of 0.001 ug/ml folinic acid
Type: functional
Active and inactive are the calls of the source. The rule behind the calls is not given here.
Labels: active, inactive

• Nc1nc(N)c2c(ccc3cc(Br)ccc32)n1 = inactive
• N=C(N)N/N=C(\c1ccc(F)cc1)c1ccc(C(F)(F)F)cc1 = active
• CC1(C)N=C(N)N=C(N)N1c1ccc(Cl)cc1 = inactive
• Cc1nc(C)c(Cl)c(O)c1Cl = active
• Nc1ccc(S(=O)(=O)c2ccc(N)cc2)cc1 = active
• C/C(=C\C(=N\NC(=N)N)c1ccccc1)c1ccccc1 = active
• Nc1nc(N)c2cc(NCc3ccc(Cl)c(Cl)c3)ccc2n1 = inactive
• Nc1ncc(Cc2ccc3c(c2)OCO3)c(N)n1 = inactive
• CCN(CC)CCCC(C)Nc1ccnc2cc(Cl)ccc12 (stereo not given) = active
• CN(Cc1cnc2nc(N)nc(N)c2n1)c1ccc(C(=O)N[C@@H](CCC(=O)O)C(=O)O)cc1 [METHOTREXATE] = inactive
